These data points were gathered from the supplement of paper PMC3545927.

Target: furin, P09958;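 note: purified furin at 1:10 enzyme:substrate in 50 mM HEPES pH 7.5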
Sequence (P09958 whole entry): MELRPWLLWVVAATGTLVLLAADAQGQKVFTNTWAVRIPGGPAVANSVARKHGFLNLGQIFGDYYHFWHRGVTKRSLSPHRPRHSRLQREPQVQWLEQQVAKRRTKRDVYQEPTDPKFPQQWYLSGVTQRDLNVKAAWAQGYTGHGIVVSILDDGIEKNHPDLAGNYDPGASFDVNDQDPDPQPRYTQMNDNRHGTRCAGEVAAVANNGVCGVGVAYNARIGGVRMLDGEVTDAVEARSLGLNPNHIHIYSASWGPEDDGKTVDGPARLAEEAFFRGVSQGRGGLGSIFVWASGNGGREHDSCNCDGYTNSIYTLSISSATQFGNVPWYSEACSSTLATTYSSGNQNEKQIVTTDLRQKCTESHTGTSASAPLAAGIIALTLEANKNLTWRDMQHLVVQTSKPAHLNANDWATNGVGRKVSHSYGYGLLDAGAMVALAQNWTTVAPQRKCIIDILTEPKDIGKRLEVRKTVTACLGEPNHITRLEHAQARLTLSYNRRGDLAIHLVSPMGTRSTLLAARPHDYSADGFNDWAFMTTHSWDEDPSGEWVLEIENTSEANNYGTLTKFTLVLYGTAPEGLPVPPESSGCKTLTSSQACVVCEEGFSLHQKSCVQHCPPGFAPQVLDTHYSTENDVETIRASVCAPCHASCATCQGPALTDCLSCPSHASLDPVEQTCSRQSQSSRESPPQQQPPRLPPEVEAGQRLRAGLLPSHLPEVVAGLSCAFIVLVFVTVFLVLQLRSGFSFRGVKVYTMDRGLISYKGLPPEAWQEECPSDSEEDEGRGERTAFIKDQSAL
Experiment: furin cleavage Z-score vs untreated control; higher = more cleavage, active = 3.5 or more, inactive = 1 or less, 8 variable residues between constant flanks
Conditions: 7.5 min
The other results are listed elsewhere or left out. The hit rate among all sequences tested is not known here.
The class of a record is decided solely by its measured furin cleavage Z-score; consult bottom: < -0.6; middle: ≥ -0.6 and < 0.2; top: ≥ 0.2

Sample answers from the record:
| sequence.input | assigned.category |
| --- | --- |
| CAGARRSRRAAGNASASA [FS-422] | top |
| CAGPSRQNRGAGNASASA [FS-1330] | middle |
| CAMSMRVRRHAGNASASA [FS-945] | top |

Query: Band of CARGRRKTGEAGNASASA [FS-3251] ?
Result: middle

Query: Band of CAGARRSVIGAGNASASA [FS-1983] ?
Result: bottom

Query: Band of CARCRRQFQEAGNASASA [FS-1887] ?
Result: middle
